- measurement-target: T1, PSMA Fab (006 PSMA Fab)
- T1 construct: In the phage ELISA the PSMA Fab was biotinylated and captured on neutravidin coated plates; also called Anti-PSMA Fab; anti-PSMA Fab
- assay-explanation: clonal phage ELISA on captured PSMA Fab, wells pre-incubated with PSMA antigen as competitor (column head not shown, assumed)
Where no end group is shown, it is not given here.
measured-property: Phage binding ELISA signal, Anti-PSMA Fab with PSMA antigen

>  <binder>
MEKWCIPSWMCVGM [Phage-2405]

>  <assay-value>
0.0682

$$$$
>  <binder>
LWKWCTPPWMCEVS (cysteine pairing not given here; also: displayed on bacteriophage by fusion to pIII) [Phage-2415]

>  <assay-value>
0.0864

$$$$
>  <binder>
MHHWCIPAWMCSTE [Phage-2410]

>  <assay-value>
0.0812

$$$$
>  <binder>
VAKWCIPSWMCETV (cysteine pairing not given here; also: displayed as fusion to phage pIII) [Phage-2419]

>  <assay-value>
0.0735

$$$$
>  <binder>
PDKWCIPQWMCSQM (cysteine pairing not given here; also: fused to phage pIII (clonal phage display)) [Phage-2406]

>  <assay-value>
0.0822

$$$$
>  <binder>
SERWCIPQWMCTAP (cysteine pairing not given here; also: displayed on bacteriophage by fusion to pIII) [Phage-2416]

>  <assay-value>
0.0763

$$$$
>  <binder>
VEKWCTPPWMCRFD (cysteine pairing not given here; also: displayed on bacteriophage by fusion to pIII) [Phage-2414]

>  <assay-value>
0.074

$$$$
>  <binder>
QAKWCIPQWMCESY [Phage-2411]

>  <assay-value>
0.0648

$$$$
>  <binder>
EIKWCIPSWMCNTL (cysteine pairing not given here; also: displayed as fusion to phage pIII) [Phage-2420]

>  <assay-value>
0.0772

$$$$
>  <binder>
FSKLCIPAWMCSEE (cysteine pairing not given here; also: displayed on bacteriophage by fusion to pIII) [Phage-2418]

>  <assay-value>
0.0956

$$$$
